# Experiment notes: Novel Modifiers of Survival Motor Neuron (SMN) Protein: Gene Identification via Genome-wide siRNA Screen;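 also: luminescence tracks full-length SMN protein made from the SMN2 reporter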
# Experimental context: HEK293T SMN2-luciferase reporter, siRNA knockdown, 72 h; actives lie on both sides
Out of some 31,000 sequences screened, about 1,400 (4.5%) were called active. The entries come from a sample that favours actives as a whole.
Recorded median seed-adjusted z-score split into classes low band = under -0.02, middle band = from -0.02 up to 0.08, high band = 0.08 and over

q: Textbook exercise: identify the category of the sequence given here, GCCUCAUACCAUUCCAUAUTT against MEP1B , according to its measured value.
a: high band

q: Textbook exercise: identify the category of the sequence given here, CUUAAGAUCCCACACCUCATT against SLC39A4 , according to its measured value.
a: middle band

q: Textbook exercise: identify the category of the sequence given here, GGAUAUUGCGUUUGGAACATT against TDP1 , according to its measured value.
a: low band

q: Textbook exercise: identify the category of the sequence given here, CUGUUUAGCUUCAUGCAAATT against ARID3C , according to its measured value.
a: low band

q: Textbook exercise: identify the category of the sequence given here, CACCAUCUCCGGGAACAGATT against FUT1 , according to its measured value.
a: middle band

q: Textbook exercise: identify the category of the sequence given here, GGGUGAUCGAGGACCCAAATT against COL8A1 , according to its measured value.
a: low band

q: Textbook exercise: identify the category of the sequence given here, UCCUAAAUGUGACCCGGUATT against ZMYND19 , according to its measured value.
a: high band

q: Textbook exercise: identify the category of the sequence given here, GGCACUCAGCGCAAGAAGATT against TIGD5 , according to its measured value.
a: middle band

q: Textbook exercise: identify the category of the sequence given here, UGCUGAGGGUGUUCCCAGATT against GABRR2 , according to its measured value.
a: middle band

q: Textbook exercise: identify the category of the sequence given here, GCAAAUGAGUGUGACCUAATT against RAB38 , according to its measured value.
a: low band

q: Textbook exercise: identify the category of the sequence given here, GGAACACCUUUAGUCAUGATT against ZNF790 , according to its measured value.
a: high band

q: Textbook exercise: identify the category of the sequence given here, GGAAUUCUUUGGGCUGAAATT against MMP1 , according to its measured value.
a: high band

q: Textbook exercise: identify the category of the sequence given here, UCACCACCGUGUCUAAGAATT against MPO , according to its measured value.
a: low band

q: Textbook exercise: identify the category of the sequence given here, AGGUCUCAGAUGAAGCGGUTT against PPM1B , according to its measured value.
a: middle band

q: Textbook exercise: identify the category of the sequence given here, CGAACUUCCUCAUCGGCAATT against PRLHR , according to its measured value.
a: middle band

q: Textbook exercise: identify the category of the sequence given here, AAAUCGAUCAGAUCAACAATT against CDC2L1 , according to its measured value.
a: low band

q: Textbook exercise: identify the category of the sequence given here, UGAGGACAAGGAUUUGGAATT against EIF2S2 , according to its measured value.
a: high band

q: Textbook exercise: identify the category of the sequence given here, CAGGUGAUGUGAUAUCAUATT against VGLL2 , according to its measured value.
a: low band

q: Textbook exercise: identify the category of the sequence given here, GGGCCGAACUGAAAUACGATT against FGD2 , according to its measured value.
a: middle band

q: Textbook exercise: identify the category of the sequence given here, CGAGUGCACUGCUGCCUAUTT against 5-Sep , according to its measured value.
a: low band

q: Textbook exercise: identify the category of the sequence given here, GGAACUCUAUGGUCAUCUATT against SSTR1 , according to its measured value.
a: high band

q: Textbook exercise: identify the category of the sequence given here, GCAGACCACCUGAAUAUGATT against TRO , according to its measured value.
a: high band

q: Textbook exercise: identify the category of the sequence given here, GCUGACUACUUGAAGUUCATT against DYRK1A , according to its measured value.
a: low band

q: Textbook exercise: identify the category of the sequence given here, AGUUCCCUUUGUAACCAUATT against ZNF669 , according to its measured value.
a: high band
